# ASSAY PROTOCOL: CodeBreaK 100 multiple-dose PK
# Type: in vivo, human
# APPLIED CONDITIONS: human, plasma, po, 960 mg
OBSERVED PROPERTY: AUC(0-t) (ng·h/mL)
Express the result in ng·h/mL but write the number alone.

The recorded AUC(0-t) for entry C=CC(=O)N1CCN(c2nc(=O)n(-c3c(C)ccnc3C(C)C)c3nc(-c4c(O)cccc4F)c(F)cc23)[C@@H](C)C1 equals 32400

====

# ASSAY PROTOCOL: CodeBreaK 100 multiple-dose PK
# Assay type: in vivo, human
# APPLIED CONDITIONS: human, plasma, po, 720 mg
OBSERVED PROPERTY: half-life (min)
Numbers only; they are read as min.

The measured half-life associated with C=CC(=O)N1CCN(c2nc(=O)n(-c3c(C)ccnc3C(C)C)c3nc(-c4c(O)cccc4F)c(F)cc23)[C@@H](C)C1 reads 285
